The measurements presented in this section are drawn from the supplement of paper PMC7877785.

Assay: self-splicing fitness, log relative to wild type (ln ratio); higher = more splicing; Tetrahymena group I intron in knt gene, E. coli kanamycin selection, DiMSum; sequences stand for … in CUCUCU…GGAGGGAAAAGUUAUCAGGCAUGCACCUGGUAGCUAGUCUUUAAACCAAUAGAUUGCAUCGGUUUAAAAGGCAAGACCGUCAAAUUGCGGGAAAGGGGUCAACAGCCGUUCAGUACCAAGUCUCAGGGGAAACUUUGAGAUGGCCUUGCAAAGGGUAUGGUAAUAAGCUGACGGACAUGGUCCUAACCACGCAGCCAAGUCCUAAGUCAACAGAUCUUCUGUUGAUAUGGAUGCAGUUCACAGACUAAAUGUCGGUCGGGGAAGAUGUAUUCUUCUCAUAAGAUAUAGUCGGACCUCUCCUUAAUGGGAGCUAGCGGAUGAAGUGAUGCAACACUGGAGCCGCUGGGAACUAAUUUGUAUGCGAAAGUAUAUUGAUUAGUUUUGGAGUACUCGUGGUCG;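 note: selection with 25 µg/mL kanamycin versus none on LB agar overnight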
Details: 37 °C
Provide the recorded self-splicing fitness (ln) for the entries that follow.
Just the number, please.

Exam item: Please report the measured self-splicing fitness (ln) for UCUGAGCAAUAUUACGGCGG
Marked response: -0.249

Exam item: Please report the measured self-splicing fitness (ln) for CGGGAGCAAUAUUACGAAUG
Marked response: -1.1

Exam item: Please report the measured self-splicing fitness (ln) for CACCAGCAAUAUUACGUGCG
Marked response: -0.299

Exam item: Please report the measured self-splicing fitness (ln) for CUCUAGCAAUAUUACGCUGU
Marked response: -3.24

Exam item: Please report the measured self-splicing fitness (ln) for ACUUAGCAAUAUUACGGGAU
Marked response: -0.352

Exam item: Please report the measured self-splicing fitness (ln) for CGCUAGCAAUAUUACGCGAA
Marked response: -2.95

Exam item: Please report the measured self-splicing fitness (ln) for CCAUAGCAAUAUUACGGGGG
Marked response: -3.36

Exam item: Please report the measured self-splicing fitness (ln) for GAUCAGCAAUAUUACGUAAA
Marked response: 0.169

Exam item: Please report the measured self-splicing fitness (ln) for UAGUAGCAAUAUUACGACAU
Marked response: -0.934

Exam item: Please report the measured self-splicing fitness (ln) for GAUUAGCAAUAUUACGGCAC
Marked response: -0.42

Exam item: Please report the measured self-splicing fitness (ln) for AAUAAGCAAUAUUACGUGUG
Marked response: -1.57

Exam item: Please report the measured self-splicing fitness (ln) for AGAAAGCAAUAUUACGCUGC
Marked response: -1.52

Exam item: Please report the measured self-splicing fitness (ln) for UGCCAGCAAUAUUACGCUGC
Marked response: -2.47

Exam item: Please report the measured self-splicing fitness (ln) for GUAGAGCAAUAUUACGAUGU
Marked response: -0.121

Exam item: Please report the measured self-splicing fitness (ln) for CCAGAGCAAUAUUACGAUCC
Marked response: -1.91

Exam item: Please report the measured self-splicing fitness (ln) for UGGCAGCAAUAUUACGCGCU
Marked response: -2.45
